Ref: ChEMBL document CHEMBL4028865

biological target: Stromelysin-2 (Homo sapiens); test: Inhibition of MMP10 (unknown origin) assessed using (5-FAM/QX) FRET peptide as substrate by fluorescence assay; conditions: read-out: IC50
Sequence (P09238 whole entry): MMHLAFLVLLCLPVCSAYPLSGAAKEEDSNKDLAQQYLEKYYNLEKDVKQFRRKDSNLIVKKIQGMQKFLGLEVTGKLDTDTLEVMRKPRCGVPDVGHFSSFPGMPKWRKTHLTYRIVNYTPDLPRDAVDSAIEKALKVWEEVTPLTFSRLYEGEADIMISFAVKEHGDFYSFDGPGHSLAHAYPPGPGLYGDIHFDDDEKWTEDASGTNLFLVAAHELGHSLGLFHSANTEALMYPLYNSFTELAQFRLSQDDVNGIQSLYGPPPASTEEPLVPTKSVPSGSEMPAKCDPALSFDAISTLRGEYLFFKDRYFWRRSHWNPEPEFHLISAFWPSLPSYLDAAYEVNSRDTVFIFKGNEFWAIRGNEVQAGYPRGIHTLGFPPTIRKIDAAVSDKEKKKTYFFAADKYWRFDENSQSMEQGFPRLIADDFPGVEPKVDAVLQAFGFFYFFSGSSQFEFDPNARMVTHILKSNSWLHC
outcome.measure: IC50
Report the figure along with its unit, number first.

Data request, read-out IC50, for "COc1cc(CNC(=O)C#Cc2cn(Cc3ccc(C(=O)N[C@@H](CO)C(=O)O)cc3)c(=O)[nH]c2=O)ccc1F"
705 nM

Data request, read-out IC50, for "O=C(O)CCCOc1cccc(CNC(=O)C#Cc2cn(Cc3ccc(C(=O)O)cc3)c(=O)[nH]c2=O)c1"
8400 nM

Data request, read-out IC50, for "COc1cc(CNC(=O)C#Cc2cn(Cc3ccc(-c4cnco4)cc3)c(=O)[nH]c2=O)ccc1F"
31 nM

Data request, read-out IC50, for "CNC(=O)c1ccc(Cn2cc(C#CC(=O)NCc3ccc(F)c(OC)c3)c(=O)[nH]c2=O)cc1"
635 nM

Data request, read-out IC50, for "COc1cc(CNC(=O)C#Cc2cn(Cc3ccc(S(=O)(=O)NC(C)C)cc3)c(=O)[nH]c2=O)ccc1F"
147 nM

Data request, read-out IC50, for "COc1cc(CNC(=O)C#Cc2cn(Cc3ccc(S(=O)(=O)NC(C)(C)C)cc3)c(=O)[nH]c2=O)ccc1F"
131 nM

More entries:
Data request, read-out IC50, for "COC(=O)c1ccc(Cn2cc(C#CC(=O)NCc3ccc(F)c(OC)c3)c(=O)[nH]c2=O)cc1"
506 nM

Data request, read-out IC50, for "COc1cc(CNC(=O)C#Cc2cn(Cc3ccc(S(=O)(=O)NC4CC4)cc3)c(=O)[nH]c2=O)ccc1F"
110 nM

Data request, read-out IC50, for COc1cccc(CNC(=O)c2nc3scc(COCc4ccc(C(=O)O)cc4)c3c(=O)[nH]2)c1 [T-26c]
358 nM

Data request, read-out IC50, for "COC(=O)[C@H]1CCCN1C(=O)c1ccc(Cn2cc(C#CC(=O)NCc3ccc(F)c(OC)c3)c(=O)[nH]c2=O)cc1"
2050 nM
